biological target: Cathepsin S (Homo sapiens); test: Cathepsin IC50, cathepsin S; type: biochemical
Reported values of log10(IC50) for individual entries
Hello, just confirming the data are log10 of IC50 with units of µM.

Below are worked cases with known answers.
compound	log10(IC50)
N#Cc1cccc(-c2nnc(C(=O)N[C@@H]3C[C@@H](CF)N(C#N)C3)o2)c1	2.41
N#CN1CCC(NC(=O)c2cc(-c3cccc(Cl)c3)no2)C1 (stereo not drawn) [B, reference compound]	0.36
N#Cc1cccc(-c2ccn3c(C(=O)N[C@@H]4CCN(C#N)C4)cnc3c2)c1	0.84
C[C@H]1CN(C#N)C[C@@H]1NC(=O)c1cnc(-c2ccccc2)s1 [C, reference compound]	0.77

Inquiry: // fetch log10(IC50) given entry COc1cccc(-c2cc(C(=O)N[C@@H]3CCN(C#N)C3)on2)c1 [A, reference compound]
Reply text: 0.94

###

Listed next: entries and their corresponding IC50.
target: Cathepsin S (Homo sapiens, UniProt P25774); test: Cathepsin IC50, cathepsin S; format: biochemical
Sequence (P25774 115-331, species assumed): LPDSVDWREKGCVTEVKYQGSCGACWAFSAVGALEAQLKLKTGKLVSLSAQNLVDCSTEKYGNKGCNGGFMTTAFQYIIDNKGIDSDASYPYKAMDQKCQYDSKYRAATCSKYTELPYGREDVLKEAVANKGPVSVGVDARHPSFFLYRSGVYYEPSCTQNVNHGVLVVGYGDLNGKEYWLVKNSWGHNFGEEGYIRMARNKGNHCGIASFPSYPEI
// return numeric value only (unit: µM, not printed)

compound	studySystem	unitAnnotation	IC50
COC[C@@H]1C[C@@H](NC(=O)c2nnc(-c3cc(C#N)ccc3OC)o2)CN1C#N [Example 4]	Cathepsin S (Homo sapiens, UniProt P25774)	µM	226

Let's switch to this compound now.
Inquiry: Please report IC50 for the following compound: N#CN1CCC(C(=O)Nc2nnc(-c3ccccc3)s2)C1 (stereo not shown) [F, reference compound]
Reply text: 2.1

###

target: UCHL1 (Homo sapiens, UniProt P09936); assay: DUB biochemical IC50 assay, UCHL1
Sequence (P09936 whole entry, species assumed): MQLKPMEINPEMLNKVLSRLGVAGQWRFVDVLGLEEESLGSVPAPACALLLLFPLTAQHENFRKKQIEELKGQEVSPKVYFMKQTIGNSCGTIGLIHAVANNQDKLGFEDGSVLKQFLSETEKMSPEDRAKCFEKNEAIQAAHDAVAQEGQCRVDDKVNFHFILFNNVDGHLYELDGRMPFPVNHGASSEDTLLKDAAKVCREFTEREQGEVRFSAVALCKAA
Measured DUB selectivity preference for USP30 v UCHL1 of individual entries
Form: value (number only, do not type unit).

compound	studySystem	testValue
C[C@@H]1C[C@@H](NC(=O)c2nnc(-c3cccc(C#N)c3)o2)CN1C#N	UCHL1 (Homo sapiens, UniProt P09936)	10300

Inquiry: Identify the reported DUB selectivity preference for USP30 v UCHL1 for the following entry. `N#Cc1cccc(-c2nnc(C(=O)N[C@@H]3C[C@@H](CF)N(C#N)C3)o2)c1`
Reply text: 15400

Inquiry: Give me measured DUB selectivity preference for USP30 v UCHL1, please, for this compound: `COC[C@@H]1C[C@@H](NC(=O)c2nnc(-c3cccc(C#N)c3)o2)CN1C#N`
Reply text: 8100

Inquiry: Answer with the recorded DUB selectivity preference for USP30 v UCHL1 for the compound listed here: `COc1ccc(C#N)cc1-c1nnc(C(=O)N[C@@H]2C[C@@H](C)N(C#N)C2)o1`
Reply text: 8800

Inquiry: Identify DUB selectivity preference for USP30 v UCHL1 associated with the compound N#CN1CCC(C(=O)Nc2nnc(-c3ccccc3)s2)C1 (stereo not drawn) [F, reference compound]
Reply text: 4.6

Inquiry: Could you please provide reported DUB selectivity preference for USP30 v UCHL1 for `COC[C@@H]1C[C@@H](NC(=O)c2nnc(-c3cc(C#N)ccc3OC)o2)CN1C#N` ? Thanks!
Reply text: 10300

###

test: PK mouse; type: in vivo; settings: blood; mouse 2 mg/kg iv; read-out: Cl blood
readout: clearance (mL/min/kg)
Field format: number, assumed mL/min/kg, no unit text.

Inquiry: Provide only the value of recorded clearance for `C[C@@H]1C[C@@H](NC(=O)c2nnc(-c3cccc(C#N)c3)o2)CN1C#N`
Reply text: 23

Hey, just so you know, these numbers are from patent US20220315572A1.
